Assay: chemical genetic growth profiling, strain panel (AID 1159580);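 also: tested at 20 µM; growth read once vehicle control cultures reached saturation at 30 °C; lower values mean less growth of the strain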
Conditions: S. cerevisiae deletion strains, growth OD, locus YDR195W, strain ref2
The whole screen tested about 5,500 compounds, of which about 2,000 (36%) were called active. Another 18% or so got no clear call; they are omitted. Rule as the data show it: active = normalized growth mostly below about 0.91 (no sharp cut-off); inconclusive = no clear call, values can overlap the other calls; inactive = mostly above about 0.92. The list shows a part of the results.
Pick one: T = active, F = inactive

Reference set, count: 10
compound	group
COc1c(O)cc2c(c1O)[C@H]1O[C@H](CO)[C@@H](O)[C@H](O)[C@@H]1OC2=O	F
NC(=O)c1ccccc1O	F
COC(=O)CC1C(C)(C)C(OC(C)=O)[C@@H]2[C@@H](OC(C)=O)[C@]34O[C@@]2(O)[C@]1(C)C3CC[C@]1(C)C4=CC(=O)O[C@H]1c1ccoc1 (some centres undefined)	F
O=c1c(-c2ccc(O)cc2)coc2c(C3O[C@H](CO)[C@@H](O)[C@H](O)[C@H]3O)c(O)ccc12 (some centres undefined)	F
NC[C@H]1O[C@H](O[C@H]2[C@H](O)[C@@H](O[C@H]3O[C@H](CO)[C@@H](O)[C@H](N)[C@H]3O)[C@H](N)C[C@@H]2N)[C@H](N)[C@@H](O)[C@@H]1O	F
CN(C)CC[C@H](c1ccc(Cl)cc1)c1ccccn1	F
NCCCC(O)(P(=O)(O)O)P(=O)(O)O	F
CC(C)(C)NCC(O)COc1cccc2c1C[C@H](O)[C@H](O)C2 (some centres undefined)	F
CC(=O)O[C@@H]1CC2C(C)(CC[C@H](O)C2(C)C)C2CC[C@]3(C)C(=CC(=O)O[C@H]3c3ccoc3)C21C (some centres undefined)	F
O=C(/C=C(\O)c1ccccc1)c1ccccc1O	F

Entry O=c1c2cc(O)c(O)cc2oc2cc(O)c(C3O[C@H](CO)[C@H](O)[C@@H](O)[C@H]3O)c(O)c12 (some centres undefined) : call = ?
F

What do you have for O=C(CCCN1CCC(O)(c2ccc(Cl)cc2)CC1)c1ccc(F)cc1 ?
T
